Compiled record: Ki values for Chymotrypsinogen A (Bos taurus) across several sources.
Reported property: Ki (µM)

Q: # lookup: Ki of CC(=O)NC(/C=C/S(C)(=O)=O)Cc1ccccc1 (stereo not drawn)
Ans: 29400

Q: # lookup: Ki of C=CCOC(=O)c1cc2cc(CCl)ccc2oc1=O
Ans: 33

Q: # lookup: Ki of CCCCCC(NC(=O)[C@@H]1CCCN1C(=O)[C@@H](NC(=O)OCc1ccccc1)C(c1ccccc1)c1ccccc1)B1O[C@@H]2CC3CC(C3(C)C)[C@]2(C)O1 (stereo partly drawn)
Ans: 1.2

Q: # lookup: Ki of COC(=O)c1ccc2oc(C(=O)C(Cc3ccccc3)NC(=O)Cn3c(-c4cccc(C)c4)ncc(N)c3=O)nc2c1 (stereo not drawn)
Ans: 0.0477

(a) Nc1cnc(-c2ccc(F)cc2)n(CC(=O)NC(Cc2ccccc2)C(=O)c2nc3ncccc3o2)c1=O (stereo not drawn)
(b) CC(C)OC(=O)c1cc2cc(CCl)ccc2oc1=O
(c) CC(C)[C@H](NS(=O)(=O)c1ccccc1)C(=O)N1CCC[C@H]1C(=O)NC(Cc1ccccc1)C(=O)C(F)(F)C(=O)Nc1cccc(C(=O)O)c1 (stereo partly drawn)
Q: Order the records so the highest Ki appears first and the lowest last. List the labels in the requested order.
Ans: b, c, a
(b: 16 µM, c: 0.554 µM, a: 0.0605 µM)

###

Compiled record: Ki values for Chymotrypsinogen A (Bos taurus, UniProt P00766) across several sources.
Reported property: Ki (µM)

(I) CC(=O)NC(Cc1ccccc1)C(N)=O (stereo not drawn)
(II) CC(C)[C@H](NC(=O)OC(C)(C)C)C(=O)N1CCC[C@H]1C(=O)NC(Cc1ccccc1)C(=O)C(F)(F)C(=O)NCCC(=O)O (stereo partly drawn)
(III) CC(C)[C@H](NC(=O)[C@@H]1CCCN1C(=O)[C@@H](NC(=O)c1ccc(C(=O)NS(=O)(=O)c2ccc(Cl)cc2)cc1)C(C)C)C(=O)c1nc2cc(C(N)=O)ccc2o1
Q: Order all 3 entries above by recorded Ki, highest first, lowest last. List the labels in the requested order.
Ans: I, III, II
(I: 13900 µM, III: 92 µM, II: 2.3 µM)

(A) Nc1ccc2oc(C(=O)C(Cc3ccccc3)NC(=O)Cn3c(-c4ccc(F)cc4)ncc(N)c3=O)nc2c1 (stereo not drawn)
(B) COc1ccc(COc2cccc(NC(=O)C3CCN(c4ccncc4)CC3)c2)cc1OC
(C) CCC(C)(C)C(NC(=O)[C@@H]1CCCN1C(=O)[C@H](Cc1ccccc1)NC(=O)OCc1ccccc1)B1O[C@@H]2CC3CC(C3(C)C)[C@]2(C)O1 (stereo partly drawn)
Q: Rank the items in ascending order with respect to Ki. List the labels in the requested order.
Ans: A, C, B
(A: 0.06 µM, C: 0.152 µM, B: 71.5 µM)

###

Compiled record: Ki values for Chymotrypsinogen A (Bos taurus) across several sources.
Reported property: Ki (nM)

Example entries begin here.
Q: // map CCC[C@H](NC(=O)[C@H](Cc1ccc(OC)cc1)NC(=O)CC(C)C)C(=O)N[C@@H](CC1CCCCC1)C(=O)C(F)(F)CN to recorded Ki (system: Chymotrypsinogen A (Bos taurus))
Ans: 2500

Q: // map CC(C)[C@H](NC(=O)OC(C)(C)C)C(=O)N1CCC[C@H]1C(=O)NC(Cc1ccccc1)C(=O)C(F)(F)C(=O)NCC(=O)O (stereo not given in full) to recorded Ki (system: Chymotrypsinogen A (Bos taurus))
Ans: 2620

Q: // map CC(C)[C@H](NC(=O)OC(C)(C)C)C(=O)N1CCC[C@H]1C(=O)NC(Cc1ccccc1)C(=O)C(F)(F)C(=O)NCc1ccccc1 (mixture of isomers; form 1) to recorded Ki (system: Chymotrypsinogen A (Bos taurus))
Ans: 172

Q: // map O=C(Oc1ccccc1)c1cc2cc(CCl)ccc2oc1=O to recorded Ki (system: Chymotrypsinogen A (Bos taurus))
Ans: 340

Q: // map CCOC(=O)[C@H](Cc1ccc(OCC2CO2)cc1)NC(=O)c1ccccc1 (stereo not given in full) to recorded Ki (system: Chymotrypsinogen A (Bos taurus))
Ans: 380000

Q: // map NC(=O)c1ccc2oc(C(=O)C(Cc3ccccc3)NC(=O)Cn3c(-c4ccc(F)cc4)ncc(N)c3=O)nc2c1 (stereo not given) to recorded Ki (system: Chymotrypsinogen A (Bos taurus))
Ans: 53.4

(P) CCCCCC(NC(=O)[C@@H]1CCCN1C(=O)[C@H](Cc1ccccc1)NC(=O)OCc1ccccc1)B1O[C@@H]2CC3CC(C3(C)C)[C@]2(C)O1 (stereo in doubt; 3)
(Q) Nc1cnc(-c2ccc(F)cc2)n(CC(=O)NC(Cc2ccccc2)C(=O)c2nc3cc(O)ccc3o2)c1=O (stereo not given)
(R) CCOC(=O)c1cc2cc(CCl)ccc2oc1=O
(S) CCN(CC)C(=O)c1ccc2oc(C(=O)C(Cc3ccccc3)NC(=O)Cn3c(-c4ccc(F)cc4)ncc(N)c3=O)nc2c1 (stereo not given)
(T) CC1(C)C2CC1[C@]1(C)OB(C(Cc3ccccc3)NC(=O)[C@@H]3CCCN3C(=O)[C@H](Cc3ccccc3)NC(=O)OCc3ccccc3)O[C@@H]1C2 (stereo not given in full)
Q: Order the records so the highest Ki appears first and the lowest last. List the labels in the requested order.
Ans: R, Q, P, S, T

(a) COCCCC(NC(=O)[C@@H]1CCCN1C(=O)[C@@H](NC(=O)OCc1ccccc1)C(c1ccccc1)c1ccccc1)B1O[C@@H]2CC3CC(C3(C)C)[C@]2(C)O1 (stereo not given in full)
(b) Nc1cnc(-c2ccc(F)cc2)n(CC(=O)NC(Cc2ccccc2)C(=O)c2nc3cc(C(=O)O)ccc3o2)c1=O (stereo not given)
Q: I would appreciate it if you could say which entry, a or b , has the lower Ki value. Pick one; state its label.
Ans: b
(b: 133 nM, a: 2960 nM)
